Reported self-cleavage by item:
B1: LINE1-mini (parent)
chain: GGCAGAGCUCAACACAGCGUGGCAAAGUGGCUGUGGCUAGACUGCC

# Variants of: B1
# Assay Summary: self-cleavage, relative activity (ratio to wild type); higher = more cleavage; in vitro, sequencing; the parent is a self-cleaving ribozyme

| Query Sequence | Recorded Value |
| --- | --- |
| GGCAGAGCUCAACACAACGUGGCAAAGUGGCUGUGGCUAAACUGCC | 0.06 |
| GGCAGAGCUCAACACAGCGUGGCAAAGUGGCUGAGGCUCGACUGCC | 0.12 |
| GGCAGAGCUGAACACAGCGUGGCAAAGUGGCUGUGGCUCGACUGCC | 0.02 |
| GGCAGAGCUCAACAAAGCGUGGCAAAGUGGCUGUGGCUUGACUGCC | 0.06 |
| GGCAGAGCUCAACACAGCGUGGCAAAGUGGCUGGGGCUAGACUACC | 0.04 |

**Q:** Consider the variant GUCAGAGCUCAACACAGCGUGGCUAAGUGGCUGUGGCUAGACUGCC and give its measured self-cleavage.
**A:** 0.19

**Q:** What value of self-cleavage has been recorded for this entry: GGCAGAGCUUAACACAGCGUGGCAAAGUGGCUGUGGCUAGACUCCC
**A:** 0.16

**Q:** Given GGCAGAGCUCAACACAGCGUUGCAAAGUGGCUGUGGCUAGACUCCC , state its recorded self-cleavage.
**A:** 0.25

**Q:** Query (variant): GGCAGAGCUCAACACAGUGUGGCAAAGAGGCUGUGGCUAGACUGCC ; field requested: self-cleavage
**A:** 0.86

**Q:** Look up self-cleavage for this variant: GGCAGAGCUCAACACAGCGUGGAUAAGUGGCUGUGGCUAGACUGCC
**A:** 1
